Known OD450 nm of a selection of binders
target.of.assay: T1, human GPC3-His protein (human, UniProt P51654 25-559)
T1 construct: Bought protein; also called human GPC3 protein; not shown: His tag
test.summary: ELISA, coated human GPC3, antibody 0.001 nM
Unit OD450 implied. Number only.

binder="F1.62.9 human-murine chimeric antibody (antibody, human IgG1, kappa, V domains shown) VH: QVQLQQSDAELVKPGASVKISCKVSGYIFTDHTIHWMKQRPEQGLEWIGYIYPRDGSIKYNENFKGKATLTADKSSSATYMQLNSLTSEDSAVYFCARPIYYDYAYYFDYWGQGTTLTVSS VL: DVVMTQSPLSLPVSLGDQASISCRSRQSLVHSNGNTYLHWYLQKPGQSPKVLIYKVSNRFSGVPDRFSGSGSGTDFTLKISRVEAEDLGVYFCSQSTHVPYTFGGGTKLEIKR" unit_text=OD450 observed_measurement=0.09

Ask: Any idea what its OD450 nm is? The binder is F1.145.22 human-murine chimeric antibody (antibody, human IgG1, kappa, V domains shown) VH: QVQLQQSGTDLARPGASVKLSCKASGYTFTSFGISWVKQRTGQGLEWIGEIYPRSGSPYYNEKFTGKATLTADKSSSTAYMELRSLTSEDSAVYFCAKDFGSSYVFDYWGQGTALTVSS VL: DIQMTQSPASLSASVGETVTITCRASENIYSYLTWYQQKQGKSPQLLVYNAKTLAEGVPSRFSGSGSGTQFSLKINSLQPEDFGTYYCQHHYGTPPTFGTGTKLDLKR
Result: 0.12
